- study-target: PLK4 (Homo sapiens, UniProt O00444)
- Construct: purchased DiscoverX Corp. (ScanMAX Kinase analysis panel, service)
- Sequence (O00444 1-970): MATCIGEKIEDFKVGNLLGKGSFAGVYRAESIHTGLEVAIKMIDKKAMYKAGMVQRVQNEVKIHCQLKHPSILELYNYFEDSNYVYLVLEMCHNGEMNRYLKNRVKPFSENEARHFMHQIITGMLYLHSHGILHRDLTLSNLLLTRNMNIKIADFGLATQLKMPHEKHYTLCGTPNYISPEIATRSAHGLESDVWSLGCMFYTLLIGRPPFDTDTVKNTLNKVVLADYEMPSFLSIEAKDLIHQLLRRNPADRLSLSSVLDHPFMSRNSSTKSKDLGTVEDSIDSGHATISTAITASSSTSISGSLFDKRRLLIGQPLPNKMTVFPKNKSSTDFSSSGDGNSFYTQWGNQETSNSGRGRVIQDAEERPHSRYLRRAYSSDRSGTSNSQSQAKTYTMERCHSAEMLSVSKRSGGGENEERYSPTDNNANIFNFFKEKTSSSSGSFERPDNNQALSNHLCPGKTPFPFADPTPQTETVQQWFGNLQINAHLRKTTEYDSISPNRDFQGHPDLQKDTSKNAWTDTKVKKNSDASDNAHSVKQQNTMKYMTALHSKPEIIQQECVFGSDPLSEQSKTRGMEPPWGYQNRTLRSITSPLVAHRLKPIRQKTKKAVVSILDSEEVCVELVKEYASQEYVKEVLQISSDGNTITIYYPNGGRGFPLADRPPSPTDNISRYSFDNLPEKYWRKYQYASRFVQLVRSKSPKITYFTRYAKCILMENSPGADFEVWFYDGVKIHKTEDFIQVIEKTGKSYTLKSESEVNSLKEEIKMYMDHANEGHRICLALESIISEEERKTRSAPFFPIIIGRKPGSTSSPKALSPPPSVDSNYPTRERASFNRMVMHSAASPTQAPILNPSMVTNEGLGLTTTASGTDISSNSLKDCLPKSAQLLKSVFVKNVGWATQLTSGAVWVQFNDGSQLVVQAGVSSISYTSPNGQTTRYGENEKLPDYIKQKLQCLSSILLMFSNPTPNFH
- assay-procedure: ScanMAX Kinase analysis panel, PLK4
- Format: binding
- condition-info: 1 μM in DMSO; <35% considered inhibitory; read-out: percent control (% control), PLK4
recorded-endpoint: remaining binding at 1 µM (%)

a = CNc1nc(Nc2ccc(S(=O)(=O)N3CCC(N4CCOCC4)CC3)cc2OC)nc2[nH]cc(C(F)(F)F)c12 [Example 157, 2,2,2-trifluoroacetate]
b = CNc1nc(Nc2ccc(P3(=O)CCN(C4CC4)CC3)cc2OC)nc2[nH]cc(C(F)(F)F)c12 [Example 411]
Given the listed records, identify the one among a and b with higher remaining binding at 1 µM. Give the label of your selection. b
(b: 23%, a: 10%)

---

- study-target: human GST-CLK1 (Homo sapiens)
- Sequence (P49759 129-484 limits assumed): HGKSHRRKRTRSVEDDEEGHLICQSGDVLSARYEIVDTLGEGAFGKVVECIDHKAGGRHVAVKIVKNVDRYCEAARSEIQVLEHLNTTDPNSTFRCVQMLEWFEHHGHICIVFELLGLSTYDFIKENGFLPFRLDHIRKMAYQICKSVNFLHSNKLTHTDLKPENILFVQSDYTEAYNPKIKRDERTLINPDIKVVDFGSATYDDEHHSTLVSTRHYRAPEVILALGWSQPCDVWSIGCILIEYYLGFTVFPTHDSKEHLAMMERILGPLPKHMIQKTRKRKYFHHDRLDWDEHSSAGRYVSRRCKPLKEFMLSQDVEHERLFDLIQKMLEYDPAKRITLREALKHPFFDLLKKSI
recorded-endpoint: IC50

I would be grateful if you could share the reported IC50 for `COc1cc(S(=O)(=O)N2CCOCC2)ccc1Nc1nc(NC2CCOCC2)c2c(C#N)c[nH]c2n1` . 301 to 1000 nM

// repeat for COc1cc(S(=O)(=O)N2CCOCC2)ccc1Nc1nc(NC(C)C)c2cc[nH]c2n1 [Example 13, 2,2,2-trifluoroacetate] and report 301 to 1000 nM

And then `COc1cc(P2(=O)CCN(C3CC3)CC2)ccc1Nc1nc(N[C@H]2CCOC2)c2c(C#N)c[nH]c2n1` , what is it? < 100 nM

How about this compound: `COc1cc(S(C)(=O)=O)ccc1Nc1nc(NCC2CCCC2)c2cc[nH]c2n1` 301 to 1000 nM

Also, `COCCNc1nc(Nc2ccc(S(=O)(=O)N3CCOCC3)cc2OC)nc2[nH]cc(C#N)c12` please. 301 to 1000 nM

And then `O=C(c1ccc(Nc2nc(NCC3CCCC3)c3c(C(F)(F)F)c[nH]c3n2)c2c1OCCO2)N1CCOCC1` , what is it? 301 to 1000 nM

Then this compound: CCCNc1nc(Nc2ccc(S(=O)(=O)N3CCOCC3)cc2OC)nc2[nH]ccc12 [Example 7, 2,2,2-trifluoroacetate] 301 to 1000 nM

// next record `CCCCNc1nc(Nc2ccc(S(=O)(=O)N3CCOCC3)cc2OC)nc2[nH]cc(C(F)(F)F)c12` 301 to 1000 nM

// repeat for `O=C(c1ccc(Nc2nc(NCC3CCCC3)c3c(C(F)(F)F)c[nH]c3n2)c2c1CCO2)N1CCC(N2CCOCC2)CC1` and report 301 to 1000 nM

Let us now turn to `CCCNc1nc(Nc2ccc(C(=O)N3CCN(C4COC4)CC3)c3c2OCCO3)nc2[nH]cc(C(F)(F)F)c12` < 100 nM

Note, next up: `CCNc1nc(Nc2cc(F)c(S(=O)(=O)N3CCC(N4CCOCC4)CC3)cc2OC)nc2[nH]cc(C(F)(F)F)c12` 101 to 300 nM

Further, for `COc1cc(P2(=O)CCN(C3CCOCC3)CC2)ccc1Nc1nc(NC2CCCCC2)c2c(C#N)c[nH]c2n1` ? < 100 nM

What about this compound? `CCCNc1nc(Nc2ccc(P3(=O)CCN(C4CC4)CC3)cc2OC)nc2[nH]cc(C#N)c12` 101 to 300 nM
